The reported measurements were obtained from ChEMBL document CHEMBL3877303.

systemTested: BCR/ABL p210 fusion protein (Homo sapiens)
Sequence (A1Z199 1-97): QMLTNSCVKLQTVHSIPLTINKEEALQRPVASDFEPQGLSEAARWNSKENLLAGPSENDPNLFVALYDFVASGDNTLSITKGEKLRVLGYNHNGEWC
assayComment: Inhibition of human BCR/ABL p210 fusion protein expressed in BAF3 cells assessed as growth inhibition measured after 72 hrs by CellTiter-Glo or CCK8 assay
Type: cell-based
endpoint: GI50 (nM)

Below are worked cases with known answers.
smilesentry=Cc1ccc(NC(=O)c2ccc(CN3CCN(C)CC3)c(C(F)(F)F)c2)cc1OC1CCN(C(=O)c2cccnc2C)CC1 systemtested="BCR/ABL p210 fusion protein (Homo sapiens)" endpoint=GI50 readoutvalue=2210
smilesentry=Cc1ccc(NC(=O)c2ccc(CN3CCN(C)CC3)c(C(F)(F)F)c2)cc1OC1CCN(C(=O)CN(C)C)CC1 systemtested="BCR/ABL p210 fusion protein (Homo sapiens)" endpoint=GI50 readoutvalue=3070
smilesentry=COc1cc2ncnc(N3CCC(Oc4cc(NC(=O)c5ccc(CN6CCN(C)CC6)c(C(F)(F)F)c5)ccc4C)CC3)c2cc1OC systemtested="BCR/ABL p210 fusion protein (Homo sapiens)" endpoint=GI50 readoutvalue=773

[A] Cc1ccc(NC(=O)c2ccc(CN3CCN(C)CC3)c(C(F)(F)F)c2)cc1OC1CCN(C(=O)c2cnc3ccccc3c2)CC1
[B] Cc1ccc(NC(=O)c2ccc(CN3CCN(C)CC3)c(C(F)(F)F)c2)cc1OC1CCN(C(=O)c2cnccc2C)CC1
[C] Cc1ccc(NC(=O)c2ccc(CN3CCN(C)CC3)c(C(F)(F)F)c2)cc1OC1CCN(C(=O)c2cccnc2F)CC1
Rank order required: GI50, descending. Give me the labels in the order the question wants.
C, B, A
(C: 2000 nM, B: 203 nM, A: 86 nM)

[1] Cc1ccc(NC(=O)c2ccc(CN3CCN(C)CC3)c(C(F)(F)F)c2)cc1OC1CCN(c2ncccn2)CC1
[2] Cc1ccc(NC(=O)c2ccc(CN3CCN(C)CC3)c(C(F)(F)F)c2)cc1OC1CCN(C(=O)c2cncc(Cl)c2)CC1
[3] Cc1ccc(C(=O)N2CCC(Oc3cc(NC(=O)c4ccc(CN5CCN(C)CC5)c(C(F)(F)F)c4)ccc3C)CC2)cn1
[4] C=CC(=O)N1CCC(Oc2cc(NC(=O)c3ccc(CN4CCN(C)CC4)c(C(F)(F)F)c3)ccc2C)CC1
[5] Cc1ccc(NC(=O)c2ccc(CN3CCN(C)CC3)c(C(F)(F)F)c2)cc1OC1CCN(S(=O)(=O)c2ccccc2)CC1
List by increasing GI50. Field: ranking. Enter the labels in the order requested.
3, 2, 4, 1, 5
(3: 33 nM, 2: 219 nM, 4: 427 nM, 1: 3220 nM, 5: 4770 nM)
